test: Clearance in Sprague-Dawley rat 1 mg/kg, iv; format: ADME, organism-based; design: dose 1 mg/kg, route intravenous; conditions: in vivo
measured metric: clearance (L/h/kg)
Your answer is read as L/h/kg, so omit the unit and give the number.

Per the records, this compound ( "CCN1C(=O)C(C)(C)c2cc3[nH]c4c(c3cc21)CCCc1c-4n[nH]c1C" ) has clearance equal to 1.32

* * *

biological target: Aurora kinase B (Homo sapiens, UniProt Q96GD4); assay: Inhibition of Aurora B assessed as loss of phospho histone H3 in human HCT cells; type: cell-based
Sequence (Q96GD4 whole entry): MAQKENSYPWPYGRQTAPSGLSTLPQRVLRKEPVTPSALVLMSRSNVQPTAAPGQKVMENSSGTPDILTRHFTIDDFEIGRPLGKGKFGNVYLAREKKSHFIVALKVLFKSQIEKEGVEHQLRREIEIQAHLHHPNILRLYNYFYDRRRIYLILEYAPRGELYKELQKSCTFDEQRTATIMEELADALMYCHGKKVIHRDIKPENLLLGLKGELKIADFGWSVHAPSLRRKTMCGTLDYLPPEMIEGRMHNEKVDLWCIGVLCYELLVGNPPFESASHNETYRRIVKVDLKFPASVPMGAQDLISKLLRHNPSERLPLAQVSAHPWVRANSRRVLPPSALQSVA
measured metric: IC50 (nM)
Answer with a number only, understood to be in nM.

Documented IC50 of "CCN1C(=O)C(C)(C)c2cc3[nH]c4c(c3cc21)CCCc1c-4n[nH]c1C" : 310

* * *

# Cmax per record follows
experiment: Cmax in CD1 mouse at 30 mg/kg, po; type: ADME, organism-based; set-up: dose 30 mg/kg, route oral; conditions: in vivo
Supply the numeric figure in µM, leaving out any unit text.

{"cpd smiles": "Cc1cc(-c2nc3cc4c(cc3[nH]2)NC(=O)C4(C)C)n[nH]1", "Cmax [µM]": 0.88}

The compound listed as "CCN1C(=O)C(C)(C)c2cc3nc(-c4cc(C)[nH]n4)[nH]c3cc21" shows Cmax equal to 51

* * *

assay: Clearance in Beagle dog 1 mg/kg, iv; assay type: ADME, organism-based, Canis lupus familiaris; design: dose 1 mg/kg, route intravenous; conditions: in vivo
measured metric: clearance (mL/min/kg)
# number only, unit mL/min/kg dropped from output

// sample "CCN1C(=O)C(C)(C)c2cc3[nH]c4c(c3cc21)CCCc1c-4n[nH]c1C" , its clearance was 34

* * *

Molecular target: UniProt O14965
Sequence (O14965 whole entry): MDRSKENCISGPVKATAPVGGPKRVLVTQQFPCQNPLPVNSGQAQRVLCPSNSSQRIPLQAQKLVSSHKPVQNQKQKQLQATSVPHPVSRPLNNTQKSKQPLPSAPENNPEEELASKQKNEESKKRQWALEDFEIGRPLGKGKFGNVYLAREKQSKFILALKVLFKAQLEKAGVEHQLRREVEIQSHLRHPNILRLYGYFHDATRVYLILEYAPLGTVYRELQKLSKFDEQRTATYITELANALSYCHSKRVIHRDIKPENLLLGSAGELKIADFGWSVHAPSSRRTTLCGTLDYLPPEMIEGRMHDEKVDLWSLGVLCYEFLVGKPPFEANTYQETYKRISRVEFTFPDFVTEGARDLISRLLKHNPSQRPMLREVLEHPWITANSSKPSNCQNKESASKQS
Experiment: Inhibition of Aurora A
measured metric: IC50 (nM)
Express it in nM; write the number only.

Solved cases below.
{"compound": "Cc1cc(-c2cc3ccccc3[nH]2)n[nH]1", "IC50 (nM)": 1100}
{"compound": "Cc1[nH]nc2c1Cc1c-2[nH]c2ccccc12", "IC50 (nM)": 870}
{"compound": "Cc1[nH]nc2c1CCCC1c3ccccc3NC21 (configuration not stated)", "IC50 (nM)": 42}

Record "CCOC(=O)c1[nH]nc2c1CCc1c-2[nH]c2ccccc12" ; system UniProt O14965; IC50 = 5700

The reported IC50 value, UniProt O14965, for "OCc1[nH]nc2c1CCc1c-2[nH]c2ccccc12" reads 340

Measured IC50 (UniProt O14965), entry "CCN1C(=O)C(C)(C)c2cc3nc(-c4cc(C)[nH]n4)[nH]c3cc21" : 69

# "Cc1[nH]nc2c1CCCc1c-2[nH]c2cc3c(cc12)NC(=O)C3(C)C" with UniProt O14965: IC50 is 2

IC50 of "c1ccc2c3c([nH]c2c1)-c1n[nH]c(C2CC2)c1CC3" , assay on UniProt O14965, is 110

Summary line: "Cc1[nH]nc2c1CCc1c-2[nH]c2ccccc12" , UniProt O14965, reported IC50 = 51

Value (IC50, UniProt O14965) for record "c1ccc2c3c([nH]c2c1)-c1n[nH]cc1CC3" = 300

Tested on UniProt O14965, the item "Cc1[nH]nc2c1CCCc1c-2[nH]c2cc3c(cc12)C(C)(C)C(=O)N3" showed IC50 equal to 72

Log: UniProt O14965, compound "Cc1cc(-c2nc3cc4c(cc3[nH]2)NC(=O)C4(C)C)n[nH]1" , IC50 = 180

* * *

target: Aurora kinase B (Homo sapiens); test: Inhibition of Aurora B
Measured log10(IC50), listed per entry.
Log scale reminder: IC50 in nM, then log10 taken.

Field: example entries. Status: answers known.
{"molecule": "Cc1[nH]nc2c1CCCc1c-2[nH]c2cc3c(cc12)C(C)(C)C(=O)N3", "log10(IC50)": 1.93}
{"molecule": "CCN1C(=O)C(C)(C)c2cc3[nH]c4c(c3cc21)CCCc1c-4n[nH]c1C", "log10(IC50)": 0.70}
{"molecule": "Cc1[nH]nc2c1CCCC1c3ccccc3NC21 (stereo not drawn)", "log10(IC50)": 1.34}
{"molecule": "Cc1cc(-c2nc3cc4c(cc3[nH]2)NC(=O)C4(C)C)n[nH]1", "log10(IC50)": 2.18}
{"molecule": "CCN1C(=O)C(C)(C)c2cc3nc(-c4cc(C)[nH]n4)[nH]c3cc21", "log10(IC50)": 2.11}

Per the reported Aurora kinase B (Homo sapiens) data, "Cc1[nH]nc2c1CCc1c-2[nH]c2ccccc12" has log10(IC50) of 2.34

# "Cc1[nH]nc2c1Cc1c-2[nH]c2ccccc12" with Aurora kinase B (Homo sapiens): log10(IC50) is 2.94

Short answer on Aurora kinase B (Homo sapiens) for "Cc1cc(-c2cc3ccccc3[nH]2)n[nH]1" , log10(IC50): 2.71

* * *

Target: Serine/threonine-protein kinase Chk1 (Homo sapiens, UniProt O14757)
Sequence (O14757 whole entry): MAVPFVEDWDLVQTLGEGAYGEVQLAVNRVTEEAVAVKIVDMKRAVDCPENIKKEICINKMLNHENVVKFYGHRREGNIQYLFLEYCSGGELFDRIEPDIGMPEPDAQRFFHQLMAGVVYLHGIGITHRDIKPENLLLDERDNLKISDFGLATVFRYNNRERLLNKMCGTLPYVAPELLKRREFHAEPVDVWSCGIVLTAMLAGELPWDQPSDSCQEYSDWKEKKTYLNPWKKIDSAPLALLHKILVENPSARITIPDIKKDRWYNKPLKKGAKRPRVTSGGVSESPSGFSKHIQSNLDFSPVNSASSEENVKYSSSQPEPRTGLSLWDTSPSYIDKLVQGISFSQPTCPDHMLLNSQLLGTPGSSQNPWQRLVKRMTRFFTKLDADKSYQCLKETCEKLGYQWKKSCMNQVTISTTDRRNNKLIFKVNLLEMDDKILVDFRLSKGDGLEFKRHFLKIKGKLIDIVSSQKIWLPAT
measured metric: pIC50
Note on units: pIC50 is unitless, being -log10 of a concentration expressed in mol/L.

For this molecule ( "CCN1C(=O)C(C)(C)c2cc3[nH]c4c(c3cc21)CCCc1c-4n[nH]c1C" ), measured pIC50 is 7.07

* * *

molecular target: Aurora kinase B (Homo sapiens, UniProt Q96GD4); experiment: Inhibition of Aurora B assessed as loss of phospho histone H3 in human […] cells; format: cell-based
measured metric: pIC50
Reminder that pIC50 means the negative base-10 logarithm of the concentration expressed in mol/L.

For reference, reported pIC50 for "CCN1C(=O)C(C)(C)c2cc3[nH]c4c(c3cc21)CCCc1c-4n[nH]c1C" stands at 7.00

* * *

test system: HCT-116; test: Antiproliferative activity against human HCT116 cells
Reported IC50 is given for each of the following molecules.
Please state the figure in nM; there is no need to write the unit.

{"cpd smiles": "CCN1C(=O)C(C)(C)c2cc3[nH]c4c(c3cc21)CCCc1c(C)n[nH]c1-4", "readout units": "nM", "IC50": 70}

For the next question, use this molecule.
Entry "Cc1cc(Nc2cc(N3CCN(C)CC3)nc(Sc3ccc(NC(=O)C4CC4)cc3)n2)n[nH]1" ; IC50 = 53

* * *

biological target: Receptor-type tyrosine-protein kinase FLT3 (Homo sapiens)
Sequence (P36888 whole entry): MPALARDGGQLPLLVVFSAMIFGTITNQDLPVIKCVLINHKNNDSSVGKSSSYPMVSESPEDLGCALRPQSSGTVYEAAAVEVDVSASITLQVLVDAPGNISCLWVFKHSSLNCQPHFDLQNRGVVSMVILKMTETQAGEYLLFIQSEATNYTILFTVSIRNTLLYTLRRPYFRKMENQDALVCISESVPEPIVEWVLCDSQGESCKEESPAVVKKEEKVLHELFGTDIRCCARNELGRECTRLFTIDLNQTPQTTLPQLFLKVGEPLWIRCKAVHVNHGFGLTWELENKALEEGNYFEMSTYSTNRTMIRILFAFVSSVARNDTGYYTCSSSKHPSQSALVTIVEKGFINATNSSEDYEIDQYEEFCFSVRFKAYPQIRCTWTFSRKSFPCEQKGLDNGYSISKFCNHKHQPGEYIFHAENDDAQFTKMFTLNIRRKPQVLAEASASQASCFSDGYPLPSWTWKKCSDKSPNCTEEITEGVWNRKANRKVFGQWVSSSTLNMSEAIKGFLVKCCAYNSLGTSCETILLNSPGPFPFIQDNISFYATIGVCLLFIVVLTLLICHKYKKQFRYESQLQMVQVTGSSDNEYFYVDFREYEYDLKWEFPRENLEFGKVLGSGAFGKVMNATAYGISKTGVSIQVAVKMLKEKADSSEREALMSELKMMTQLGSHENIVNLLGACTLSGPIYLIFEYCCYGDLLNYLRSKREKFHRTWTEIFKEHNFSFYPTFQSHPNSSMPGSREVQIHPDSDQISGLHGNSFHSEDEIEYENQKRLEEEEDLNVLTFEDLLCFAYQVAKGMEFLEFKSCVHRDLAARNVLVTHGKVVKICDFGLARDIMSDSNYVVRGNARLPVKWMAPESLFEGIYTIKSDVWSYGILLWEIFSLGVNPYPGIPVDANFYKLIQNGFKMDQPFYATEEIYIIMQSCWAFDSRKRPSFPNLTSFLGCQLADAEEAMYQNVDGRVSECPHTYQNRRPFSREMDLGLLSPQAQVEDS
measured metric: IC50
Please report the result as a number followed by the unit.

# IC50 (compound: "CCN1C(=O)C(C)(C)c2cc3[nH]c4c(c3cc21)CCCc1c-4n[nH]c1C" ) is 2 nM

* * *

assay: Oral bioavailability in Sprague-Dawley rat 5 mg/kg; format: ADME, organism-based; settings: in vivo
measured metric: bioavailability
Answer as a quantity: numeral, then unit.

Reported bioavailability for "CCN1C(=O)C(C)(C)c2cc3[nH]c4c(c3cc21)CCCc1c-4n[nH]c1C" was 97%
